# study_target: T1, canine parietal cell gastrin receptor (recombinant, expressed from clone GR-1 in COS-7 cells) (canine)
# T1 chain: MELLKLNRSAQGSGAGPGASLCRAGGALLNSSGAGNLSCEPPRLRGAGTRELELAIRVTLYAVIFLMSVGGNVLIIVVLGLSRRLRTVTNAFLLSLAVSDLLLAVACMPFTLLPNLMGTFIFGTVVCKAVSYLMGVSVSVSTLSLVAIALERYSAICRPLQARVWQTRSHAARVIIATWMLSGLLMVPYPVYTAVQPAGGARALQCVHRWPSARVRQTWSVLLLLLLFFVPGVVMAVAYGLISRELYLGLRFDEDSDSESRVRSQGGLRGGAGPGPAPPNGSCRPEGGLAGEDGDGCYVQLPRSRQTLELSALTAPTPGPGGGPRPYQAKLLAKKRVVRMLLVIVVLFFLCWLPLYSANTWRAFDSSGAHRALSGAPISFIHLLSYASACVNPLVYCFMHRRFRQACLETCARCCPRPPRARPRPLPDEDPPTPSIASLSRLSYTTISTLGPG
# experiment: competition with 125I-CCK-8 on isolated membranes of GR-1 transfected COS-7 cells, filtration
Ends that are not written are not given here.
experimental_readout: IC50 (pM)

a: QGPWLEEEEEAYGWMDF-NH2 (ends and bridges not checked) [gastrin I]
b: DYMGWMDF-NH2 [CCK-8-desulfate]
QUERY: Pick one, a or b : lowest reported IC50. Please reply using the label of the selected record.
RESULT: a
(a: 400 pM, b: 1500 pM)
